Test system High affinity nerve growth factor receptor (Homo sapiens, UniProt P04629), pIC50 listed for each of the compounds.
In plain terms, pIC50 is the concentration in mol/L turned into minus its base-10 logarithm.

INSERT INTO assay_data (smiles_code, study_system, recorded_measurement) VALUES
  ('CCOCc1ccc2c(c1)c1c3c(c4c5cc(COCC)ccc5n5c4c1n2[C@H]1C[C@](O)(C(=O)OC)[C@]5(C)O1)CNC3=O', 'High affinity nerve growth factor receptor (Homo sapiens, UniProt P04629)', 6.68);

Consider the additional compound presented here.
Missing value: pIC50, High affinity nerve growth factor receptor (Homo sapiens, UniProt P04629), entry COCc1ccc2c(c1)c1c3c(c4c5cc(COC)ccc5n5c4c1n2[C@H]1C[C@](O)(C(=O)OC)[C@]5(C)O1)CNC3=O . Fill in?
6.57

###

target: Mitogen-activated protein kinase kinase kinase 9 (Homo sapiens); assay: Inhibition of Mixed lineage kinase 1 (MLK1)
Sequence (P80192 whole entry): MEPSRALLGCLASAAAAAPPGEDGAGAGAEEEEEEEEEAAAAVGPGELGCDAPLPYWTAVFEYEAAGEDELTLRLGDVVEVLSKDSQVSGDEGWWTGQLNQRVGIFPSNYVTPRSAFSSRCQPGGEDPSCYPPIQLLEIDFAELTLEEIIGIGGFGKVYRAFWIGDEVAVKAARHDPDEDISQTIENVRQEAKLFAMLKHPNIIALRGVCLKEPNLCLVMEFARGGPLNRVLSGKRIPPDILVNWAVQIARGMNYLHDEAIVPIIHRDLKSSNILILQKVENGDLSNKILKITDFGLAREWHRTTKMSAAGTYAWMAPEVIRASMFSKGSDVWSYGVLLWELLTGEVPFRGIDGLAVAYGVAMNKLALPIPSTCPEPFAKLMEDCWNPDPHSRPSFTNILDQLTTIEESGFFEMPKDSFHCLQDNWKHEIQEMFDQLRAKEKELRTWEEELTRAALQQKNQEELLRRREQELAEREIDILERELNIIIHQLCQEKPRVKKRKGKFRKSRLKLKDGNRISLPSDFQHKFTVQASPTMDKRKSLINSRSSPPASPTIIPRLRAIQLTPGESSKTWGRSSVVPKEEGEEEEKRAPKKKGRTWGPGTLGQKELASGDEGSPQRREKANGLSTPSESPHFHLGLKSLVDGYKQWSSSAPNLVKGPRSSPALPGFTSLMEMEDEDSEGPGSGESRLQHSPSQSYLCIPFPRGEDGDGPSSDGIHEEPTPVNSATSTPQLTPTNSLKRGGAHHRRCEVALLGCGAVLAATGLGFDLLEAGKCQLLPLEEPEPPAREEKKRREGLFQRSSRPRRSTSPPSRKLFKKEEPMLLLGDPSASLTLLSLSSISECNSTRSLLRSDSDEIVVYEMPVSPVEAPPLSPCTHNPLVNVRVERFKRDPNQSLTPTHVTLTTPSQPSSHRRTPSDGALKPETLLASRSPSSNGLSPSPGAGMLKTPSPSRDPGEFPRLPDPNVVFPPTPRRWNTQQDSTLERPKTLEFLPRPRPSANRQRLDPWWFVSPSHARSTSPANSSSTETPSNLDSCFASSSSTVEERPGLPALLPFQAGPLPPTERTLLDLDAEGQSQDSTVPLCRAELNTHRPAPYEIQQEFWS
Response field class: enum, chosen by comparing IC50 against low class = under 30 nM, middle class = from 30 nM up to 90 nM, high class = 90 nM and over

Consider the following illustrative entries.
INSERT INTO measurements (compound, category_label) VALUES
  ('CCSCc1ccc2c(c1)c1c3c(c4c5ccccc5n5c4c1n2[C@H]1C[C@](O)(C(=O)OC)[C@]5(C)O1)CNC3=O', 'middle class'),
  ('CCCCSCc1ccc2c(c1)c1c3c(c4c5cc(CSCCCC)ccc5n5c4c1n2[C@H]1C[C@](O)(C(=O)OC)[C@]5(C)O1)CNC3=O', 'high class'),
  ('COC(=O)[C@@]1(O)C[C@H]2O[C@]1(C)n1c3ccc(CO)cc3c3c4c(c5c6cc(CO)ccc6n2c5c31)C(=O)NC4', 'low class'),
  ('COC(=O)[C@@]1(O)C[C@H]2O[C@]1(C)n1c3ccc(CSCCN(C)C)cc3c3c4c(c5c6cc(CSCCN(C)C)ccc6n2c5c31)C(=O)NC4', 'high class'),
  ('COC(=O)[C@@]1(O)C[C@H]2O[C@]1(C)n1c3ccc(CSC(C)C)cc3c3c4c(c5c6cc(CSC(C)C)ccc6n2c5c31)C(=O)NC4', 'middle class');

Field: class (IC50) — entry: C=CCSCc1ccc2c(c1)c1c3c(c4c5cc(CSCC=C)ccc5n5c4c1n2[C@H]1C[C@](O)(C(=O)OC)[C@]5(C)O1)CNC3=O
high class

Field: class (IC50) — entry: CCSCc1ccc2c(c1)c1c3c(c4c5ccccc5n5c4c1n2[C@@]1(C)O[C@@H]5C[C@]1(O)C(=O)OC)C(=O)NC3
low class

Field: class (IC50) — entry: CCSCc1ccc2c(c1)c1c3c(c4c5cc(CSCC)ccc5n5c4c1n2[C@H]1C[C@](O)(C(=O)OC)[C@]5(C)O1)CNC3=O [CEP-1347]
middle class

Field: class (IC50) — entry: CCOCc1ccc2c(c1)c1c3c(c4c5cc(COCC)ccc5n5c4c1n2[C@H]1C[C@](O)(C(=O)OC)[C@]5(C)O1)CNC3=O
low class

Field: class (IC50) — entry: COCc1ccc2c(c1)c1c3c(c4c5cc(COC)ccc5n5c4c1n2[C@H]1C[C@](O)(C(=O)OC)[C@]5(C)O1)CNC3=O
low class

###

molecular target: Mitogen-activated protein kinase kinase kinase 10 (Homo sapiens, UniProt Q02779); experiment: Inhibition of Mixed lineage kinase 2(MLK2)
Sequence (Q02779 whole entry): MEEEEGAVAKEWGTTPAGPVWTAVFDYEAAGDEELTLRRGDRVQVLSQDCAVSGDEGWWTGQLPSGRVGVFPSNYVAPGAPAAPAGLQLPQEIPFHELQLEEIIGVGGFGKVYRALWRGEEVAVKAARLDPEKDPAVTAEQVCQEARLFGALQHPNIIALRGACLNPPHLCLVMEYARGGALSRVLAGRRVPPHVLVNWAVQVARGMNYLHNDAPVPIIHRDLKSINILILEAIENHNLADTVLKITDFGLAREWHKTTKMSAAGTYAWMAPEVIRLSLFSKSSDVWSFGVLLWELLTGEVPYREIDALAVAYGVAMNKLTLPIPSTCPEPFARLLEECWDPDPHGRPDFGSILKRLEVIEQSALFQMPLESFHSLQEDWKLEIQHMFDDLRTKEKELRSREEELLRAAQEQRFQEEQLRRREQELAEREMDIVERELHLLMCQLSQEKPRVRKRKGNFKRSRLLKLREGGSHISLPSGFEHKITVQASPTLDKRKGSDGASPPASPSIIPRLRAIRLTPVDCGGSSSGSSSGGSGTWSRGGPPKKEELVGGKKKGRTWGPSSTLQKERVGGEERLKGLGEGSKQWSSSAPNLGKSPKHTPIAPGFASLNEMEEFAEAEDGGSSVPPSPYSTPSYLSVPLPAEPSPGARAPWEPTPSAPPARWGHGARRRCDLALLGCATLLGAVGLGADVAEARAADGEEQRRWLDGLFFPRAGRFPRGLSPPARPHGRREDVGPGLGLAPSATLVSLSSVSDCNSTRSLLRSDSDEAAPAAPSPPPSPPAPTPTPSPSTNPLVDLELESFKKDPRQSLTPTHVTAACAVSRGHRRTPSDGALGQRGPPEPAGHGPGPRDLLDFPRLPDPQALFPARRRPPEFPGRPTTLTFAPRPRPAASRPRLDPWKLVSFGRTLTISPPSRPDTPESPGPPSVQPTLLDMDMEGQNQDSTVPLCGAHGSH
Readings of pIC50 for the listed molecules
In plain terms, pIC50 is the concentration in mol/L turned into minus its base-10 logarithm.

Below: 3 molecules and their reported pIC50.
INSERT INTO assay_data (smiles_code, recorded_measurement) VALUES
  ('CCSCc1ccc2c(c1)c1c3c(c4c5cc(CSCC)ccc5n5c4c1n2[C@H]1C[C@](O)(C(=O)OC)[C@]5(C)O1)CNC3=O', 7.29),
  ('CCSCc1ccc2c(c1)c1c3c(c4c5ccccc5n5c4c1n2[C@H]1C[C@](O)(C(=O)OC)[C@]5(C)O1)CNC3=O', 6.85),
  ('COCc1ccc2c(c1)c1c3c(c4c5cc(COC)ccc5n5c4c1n2[C@H]1C[C@](O)(C(=O)OC)[C@]5(C)O1)CNC3=O', 7.80);

Missing value: pIC50, Mitogen-activated protein kinase kinase kinase 10 (Homo sapiens, UniProt Q02779), entry CCSCc1ccc2c(c1)c1c3c(c4c5ccccc5n5c4c1n2[C@@]1(C)O[C@@H]5C[C@]1(O)C(=O)OC)C(=O)NC3 . Fill in?
7.55

Missing value: pIC50, Mitogen-activated protein kinase kinase kinase 10 (Homo sapiens, UniProt Q02779), entry CCCCSCc1ccc2c(c1)c1c3c(c4c5cc(CSCCCC)ccc5n5c4c1n2[C@H]1C[C@](O)(C(=O)OC)[C@]5(C)O1)CNC3=O . Fill in?
6.20

Missing value: pIC50, Mitogen-activated protein kinase kinase kinase 10 (Homo sapiens, UniProt Q02779), entry COC(=O)[C@@]1(O)C[C@H]2O[C@]1(C)n1c3ccc(CSC(C)C)cc3c3c4c(c5c6cc(CSC(C)C)ccc6n2c5c31)C(=O)NC4 . Fill in?
7.05

Missing value: pIC50, Mitogen-activated protein kinase kinase kinase 10 (Homo sapiens, UniProt Q02779), entry CCOCc1ccc2c(c1)c1c3c(c4c5cc(COCC)ccc5n5c4c1n2[C@H]1C[C@](O)(C(=O)OC)[C@]5(C)O1)CNC3=O . Fill in?
7.70

The measurements presented in this section are drawn from ChEMBL document CHEMBL1135365.
